Cited source for all entries: the nanobody polyreactivity screen of Harvey et al. (2022)

# measurement-protocol: yeast display, Sf9 membrane polyspecificity reagent, FACS + sequencing; frameworks hold sequencing errors
measure: polyreactivity (PSR sort gate)

record-sequence: QVQLVESGGGLVQAGGSLRLSCAASGRTLYQYAMGWYRQAPGKERELVAVITSRGGSTNYADSVKGRFTISRDNAKNTVYLQMNSLKPEDTAVYYCAVLYPKYGKRYGYWGQGSQVTVSS
value: high polyreactivity

record-sequence: QVQLVESGGGLVQAGCSLRLSCAASGSIFDTNAKGWYRQAPGKERELVAAIYDNTGRTYYADSVKGRFTISRDNSKNTVYLQMNSQKPEDTAVYYCNAPRYYWISFARWPASYYYWGQGTQVTVSS
value: high polyreactivity

record-sequence: QVQLVESGGGLVQAGGSLRLSCAASGRIFGRYAMGWYRQAPGKERELVARITFRGGNTYYADSVKGRFTISRDNAKNTVYLQMNSLKPEDTAVYYCNASKHNPYGGDYWGQGTQVTVSS
value: high polyreactivity

record-sequence: QVQLVDSGGGLVQAGGTLRLSCAASGRIFYRYAMGWYRQAPGKERELVASITRSGITHYADSVKGRFTISRDNAKNTVYLQMNSLKPEDTAVYYCKARRGSPAPYDYWGQGTQVTVSS
value: high polyreactivity

record-sequence: QVQLVESGGGLVQAGGSLRLSCAASGRTFFKYAMGWYRQEPGKERELVASISRTGGGSTYYADSVKGRFTISRDNAKNTVYLQMNSLQPEDTAVYYCNKYTYRGRTGEFNYWGQGTQVNVSS
value: high polyreactivity

record-sequence: QVQLVESGGGLVQAGGSLRLSCAASGFTFTIYAMGWYRQAPGKERELVATISGRAGRTYYADSVKGRFTISRDNAKNTVYLQITSRKPEDSAVYYCNAGQWRYPGLYYYWGHGTQVTVSS
value: high polyreactivity

record-sequence: QVQLVESGGGLVQAGGSLRLSCAASGSTLYGNVMGWYRQAPGKESELVATINRGGSTNYADSVKGRFTISRDNAKNTVYLQMNSLKPEDTAVYYCAARAFAWYYLEDYWGQGTQVTVSS
value: low polyreactivity

record-sequence: QVQLVESGGGLVQAGGSLRLICAASGSILSINGMGWYRQAPGKERELVATIDGSDGSTFYADSVKGRFTISRDNAKNTVYLQMNSLKPEDTAVYYCAAENFWQTKEYDYWGQGTQVTVSS
value: low polyreactivity

record-sequence: QVQLVESGGGLVQAGGSLRLSCAASGSIFSYYAMGWYRQAPGKERELVAAISQSGGTTYYADSVKGRFTISRDNAKNTDYLQMKSLKPEDTAVYYCAARAPSSFDTQYYYWGQGTQVTVSS
value: low polyreactivity

record-sequence: QVQLVESGGGLVQAGGSLRLSCAASGIFGWNTMGWYRQAPGTERELVATISWGGGTTYYADSVKGRFTISRDNAKNTVYLQMNSLKPEDTAVYYCAKVYAVRIGLRYYYWGQGTQVTVSS
value: low polyreactivity

record-sequence: QVQLVESGGGLVQAGGSLRLSCAASGNTFDYYDMGWYSQAPGKERELVAAGSGGSTYYADSVKGRFTISRDNAKHTVYLQMNSLKPEDTAVYYCAARDRYYFGGMYYWGQGTQVTVSS
value: low polyreactivity

----------
# measurement-protocol: yeast display, Sf9 membrane polyspecificity reagent, FACS + sequencing; frameworks hold sequencing errors

record-sequence: QVQLVESGGGLVQAGGSLRLSCAASGSTFRPNAMGWYRQAPGKERELVAAISRSGVSTYYADSVKGRFTISRDNAKNTVYLQMNSLKPEDTAVYYCARRYTGRPVLRESWGQGTQVTVSS
polyreactivity (PSR sort gate): low polyreactivity
--
record-sequence: QVQLVESGGGLVQAGGSLRLSCAASGRIFVYNAMGWYLQAPGKERELVANIDYSGGSTYYADSVKGRFTISRDNAKNTVYLQMNSLKPEDTAVYYCAADGGSTAFDYWGHGTQVTVSS
polyreactivity (PSR sort gate): low polyreactivity
--
record-sequence: QVQLQESGGGLEQAGGSLRMSCAANGNIFDSDIVGRYRQAPGKKRELVASITDGGITNYADSVKGRFTISRDNAKYTVYLQMNSQNPVDTAVYYCAAIAYPDIPTYFDYDSDFFYWGQGTQVTVSS
polyreactivity (PSR sort gate): high polyreactivity
--
record-sequence: QVQLVESGGGLVQAGGSLRLICAASGRTFPYNAMGWYRQAPGKEREFVAVISKGGGRTYYADSVKGRFTISRDNAKNTVYLQMNSLKPEDTAVYYCAKRIGLTFWGQGTQVTVSS
polyreactivity (PSR sort gate): high polyreactivity
--
record-sequence: QVQLVESGGGLVQAGGSLRLSCAASGSTFTRYAMGWYRQAPGKERELVAGITGRGGSTYYADSVKGRFTISRDNAKNTVYFQMNSLKPEDTAVYYCNKRRRGVTTYDYWGQGTQVTVSS
polyreactivity (PSR sort gate): high polyreactivity
--
record-sequence: QVQLVESGGGLVQAGGSLRLSCAASGSTFPYYAMGWYRQAPGKERELVAAISKSGGSTYYADSVKGRFTISRDNAKNTVYLQMNSLKPEDTAVYYCAAGPRYRYYSGWYDYWGQGTQVTVSS
polyreactivity (PSR sort gate): high polyreactivity
--
record-sequence: QVQLVESGGGLVQAGGSLRLSCAASGRIFPYNVMGWYRQAPGKERELVAAISSGGTTDYADSVKGRFTISRDNAKNTVYLQMNSLKPEDTAVYYCAATYVYWTWGYDYWGQGTQVTVSS
polyreactivity (PSR sort gate): low polyreactivity
--
record-sequence: QVQLVESGGGLDQAGGSLRLSCADSGYTFRAYAMGWYRQAPGKERELVAAITRSGTSTYYADSVKGRFTISRDNAKNTVYLQMNSLKPEDTAVYYCNVDVYLYAKEYDYWGQGTQVTVSS
polyreactivity (PSR sort gate): high polyreactivity
--
record-sequence: QVQLVESGGGLVQAGGSLRLSCAASGRIFRYYAKGWYRQAPGKERELVARIRWSGGSTYYADSVKGRFTISRDNAKNTVYLQMNSLKPEDTAVYYCNAGSWSYRYNYWGQGTQVTVSS
polyreactivity (PSR sort gate): high polyreactivity
--
record-sequence: QVQLVESGGGLVQAGGSLRLSCAASGSIFVTYAMGWYRPAPGKERELVAAISTSGGSTYADSVKGRFTISRDNAKNTVYLQMNSLKPVDTAVYYCNADDPGYAVPWYWFKYDYWGQGTQVTVSS
polyreactivity (PSR sort gate): low polyreactivity
--
record-sequence: QVQLVESGGGLVQAGGSLRLSCAASGFTFSAYTMGWYRQAPGKERELVADISSRGGSTYYADSVKGRFTISRDNAKNTVYLQMNSLKPEDTAVYYCAAVWYWTQDYDYWGQGTQVTVSS
polyreactivity (PSR sort gate): low polyreactivity
